- Tested on: K4 kissing-loop RNA reporter;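 also: bound reporter read as fluorescence of individual clusters on recovered sequencing chips by microscopy, with normalized cluster intensities fitted with a binding model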
- TEST PROTOCOL: apparent KD of K4 kissing-loop reporter; higher = weaker reporter binding
- CONDITION PARAMETERS: Eterna round: R107; input ligand: FMN 200 uM
ASSAY READOUT: apparent KD of K4 kissing-loop reporter
Value and unit, in that order.

Please report apparent KD of K4 kissing-loop reporter for the following sequence: GCUAUGGUAGGAAGGAGCGCUUAAUUACUAAUAAGAGUGAUGUUCGAUAGUAGGUAUUUGUAGCAGGUAGGUCGCCUACUAUAGC [KL-Arg B24]
264 nM

Please report apparent KD of K4 kissing-loop reporter for the following sequence: AAAGAUGCGUCGGCCGCCACUGUGAUCUACGAAAGUAGUAUGUAGAUGCAGUGAUGUUGCAUUUUCAGGACCGGGACGUAAGAUG [3rd]
447 nM

Please report apparent KD of K4 kissing-loop reporter for the following sequence: AAAGUGUCAGCACGAGUGAUGUUCGACGAUACCAGCCUCGAUAGAGGCCCUUGGCAGCGUAAAAGUCAAGGGCUGGCACAUAAAA [#SwitchBubble 5 #K4Early]
789 nM

Please report apparent KD of K4 kissing-loop reporter for the following sequence: UGAUACCAGACGGCCGCCACUCCCGCAGGUCAAAGACCUGCGAAGCUGGUUCUUCAGUGAUGUUGGAGGACCGGGUCUGGUAUCU [FiskerMod 24 - Jieux - Exclusion - Tryptophan B]
306 nM

Please report apparent KD of K4 kissing-loop reporter for the following sequence: AUGUCUUAUAAACUCAUGGUUUCGAUCGAUACCAGUAGCGAGAGUUACCCUUGGCAGCGACAUGAGUGAUGUUCAUGUACGAAGA [KL-XTheoA5]
109 nM

Please report apparent KD of K4 kissing-loop reporter for the following sequence: UGUUUUUACUGAAGGAGCGGCAAUUGAUACGUAGAUAUAGUGAUGUUAUAUAAGAUAGAGAGCCAGGUAGGUCGCAGAAUGUAUC [ExArgB.aC]
214 nM

Please report apparent KD of K4 kissing-loop reporter for the following sequence: AUUACAUCUGAAAAGCUAGUGAUGUUAGCUCGAGGACCGGUACGGCCGCCACUCGCAUAGCGAGGCCAAGUCGCGGUUAACGGAG [theeternabot_exclusion_KL_Trp_A_4]
96.7 nM

Please report apparent KD of K4 kissing-loop reporter for the following sequence: UGUUAUGUAUCAGGAUAUUAGUGAUGUUUGUUGAUGUUAGUGAUGUUGAUAUUUGUUUUAUGUAUUUAAGAAGGGAUUGAGAUGU [ooilmullin]
53.9 nM

Please report apparent KD of K4 kissing-loop reporter for the following sequence: UUAUCUAUAUUCGAUACCAGUACCCUUUGUGUUAAUCCUUUUAUCAGUGAUGUUGAUGUGUACCCUUGGCAGCGGGUAUGGGUUU [KL-XTheo-B15]
420 nM

Please report apparent KD of K4 kissing-loop reporter for the following sequence: CCGGCCCAGCCGGAUACCAGUGCGCCGCAGGGAACGGCGGGCCCAGAGUGAUGUUCGGGACACCCUUGGCAGCCGCCUGGGUCCU [#2 Same State - Theophylline B Attempt #29 (HarryS)]
850 nM

Please report apparent KD of K4 kissing-loop reporter for the following sequence: CCUUCUCUUGAUAGUGAUGUUAUCGAGGACAAGGAUAUCAUCUCAAUGAGAAGGUGUCCUUGAUAACAUGGAGGUCUGAAACAGA [Omei KL FMN A Exc C v9]
205 nM

Please report apparent KD of K4 kissing-loop reporter for the following sequence: AGAACUGUCUGAGAUACCAGCCAGGAAGUGAUGUUUCCAGCUCCACGAAAGUGGAGCCAUGGCCCUUGGCAGCUCAGACAGUUCA [Omei KL Theo B SS A v5]
150 nM
